Tested on: IL-23 induced STAT3 in HEK-Blue™ IL-23 cells
procedure.details: IL-23 induced STAT3 QUANTI-Blue reporter assay in HEK-Blue IL-23 cells
Type: cell-based
run.conditions: HEK-Blue IL-23 cells, IL-23 0.1 ng/mL, SEAP levels; class symbols; read-out: IL23 reporter assay (IC50 nM)
parameter.measured: IC50

Worked cases, answers included:
CNc1cc(Nc2cccn(-c3ccn(C)n3)c2=O)nn2c(C(=O)NC(C)c3ncco3)cnc12 (single isomer, unassigned) [Compound 49a] ... < 10 nM
CNc1cc(Nc2cccn(-c3ccccn3)c2=O)nn2c(C(=O)NC3CCC4CCOC43)cnc12 (racemic) [Compound 10a] ... 10 to 100 nM
[2H]C([2H])([2H])Nc1cc(Nc2cccn(C3CCCC4(COC4)C3)c2=O)nn2c(C(=O)N[C@@H]3C[C@H]4CCO[C@H]43)cnc12 (single isomer, unassigned) [Compound 68b] ... < 10 nM
[2H]C([2H])([2H])Nc1cc(Nc2cccn(C3CC4(CCOC4)C3)c2=O)nn2c(C(=O)N[C@@H]3C[C@H]4CCO[C@H]43)cnc12 (single isomer, unassigned) [Compound 96b] ... 10 to 100 nM
CNc1cc(Nc2cccc3c2OCCC3)nc2c(C(=O)NC(C)c3ncco3)cnn12 (single isomer, unassigned) [Compound 23a] ... ≥ 1000 nM

[in] Give the value of IC50 reported for the following: CNc1cc(Nc2cccn(C3C[C@H]4CC[C@@H](C3)O4)c2=O)nn2c(C(=O)N[C@@H]3C[C@@H]3F)cnc12 (single isomer, unassigned) [Compound 79b]
[out] < 10 nM

* * *

Entries and their IC50 values follow.
system.name: N-terminal His-tagged TYK2 pseudokinase domain (Homo sapiens)
Construct: the N-terminal His-tagged TYK2 pseudokinase domain; His (N); purchased Pharmaron
Sequence (P29597 589-875 limits assumed): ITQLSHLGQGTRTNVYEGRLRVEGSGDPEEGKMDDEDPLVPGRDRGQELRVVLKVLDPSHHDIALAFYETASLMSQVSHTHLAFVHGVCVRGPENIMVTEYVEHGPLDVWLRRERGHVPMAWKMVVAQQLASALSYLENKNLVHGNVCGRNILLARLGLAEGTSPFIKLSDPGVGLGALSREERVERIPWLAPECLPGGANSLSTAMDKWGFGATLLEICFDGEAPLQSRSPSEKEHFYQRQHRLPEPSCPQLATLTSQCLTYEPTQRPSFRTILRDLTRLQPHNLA
procedure.details: TYK2 JH2 domain SPA binding assay
run.conditions: displacement of H3 probe (20 nM), 30 min room temperature; class symbols

[2H]C([2H])([2H])Nc1cc(Nc2cccn(C3CC4(CCOC4)C3)c2=O)nc2c(C(=O)N[C@@H]3C[C@@H]3F)cnn12 (single isomer, unassigned) [Compound 103a] ... 10 to 100 nM
CNc1cc(Nc2cccn(-c3nn(C)cc3F)c2=O)nn2c(C(=O)N[C@@H]3C[C@H]4CCO[C@H]43)cnc12 ... 10 to 100 nM
CNc1cc(Nc2cccc3c2OCCC3)nc2c(C(=O)N[C@@H]3C[C@H]4CCO[C@H]43)cnn12 (racemic) ... < 10 nM
CNc1cc(Nc2cccn(C3CCC4(CC3)COC4)c2=O)nn2c(C(=O)N[C@@H]3C[C@H]4CCO[C@H]43)cnc12 ... < 10 nM
CNc1cc(Nc2cccn(-c3ccn(C)n3)c2=O)nn2c(C(=O)NC(C)c3ncco3)cnc12 (single isomer, unassigned) [Compound 49a] ... 10 to 100 nM
CNc1cc(Nc2cccc3c2OCCC3)nc2c(C(=O)NC(C)c3ncco3)cnn12 (single isomer, unassigned) [Compound 23a] ... 100 to 1000 nM
CNc1cc(Nc2cccn(-c3ccccn3)c2=O)nn2c(C(=O)NC3CCC4CCOC43)cnc12 (racemic) [Compound 10a] ... 10 to 100 nM
[2H]C([2H])([2H])Nc1cc(Nc2cccn(-c3ccn(C([2H])([2H])[2H])n3)c2=O)nn2c(C(=O)N[C@@H]3C[C@H]4CCO[C@H]43)cnc12 ... 10 to 100 nM

[in] # assay system N-terminal His-tagged TYK2 pseudokinase domain (Homo sapiens): give IC50 of [2H]C([2H])([2H])Nc1cc(Nc2cccn(C3CC4(CCCO4)C3)c2=O)nn2c(C(=O)N[C@@H]3C[C@H]4CCO[C@H]43)cnc12 (single isomer, unassigned) [Compound 98a]
[out] 10 to 100 nM

[in] # assay system N-terminal His-tagged TYK2 pseudokinase domain (Homo sapiens): give IC50 of CNc1cc(Nc2cccn(C3CC4CCOC43)c2=O)nn2c(C(=O)N[C@@H]3C[C@@H]3F)cnc12 (single isomer, unassigned) [Compound 105c]
[out] 10 to 100 nM

[in] # assay system N-terminal His-tagged TYK2 pseudokinase domain (Homo sapiens): give IC50 of CNc1cc(Nc2cccn(-c3ccccc3)c2=O)nn2c(C(=O)NC3CCn4ncnc43)cnc12 (racemic)
[out] 10 to 100 nM
